Measured cytotoxicity at 10 µM, listed per entry for reference.
Test: Toxicity liver stage against HepG2, at 10uM
Assay type: cell-based
Parameters: test concentration 10 uM, cell line HepG2-A16-CD81EGFP
Conditions: human, HepG2-A16-CD81EGFP cells; read-out: INHIBITION
Answer format: numeric, % implied, no suffix.

Here is how some molecules turned out for cytotoxicity at 10 µM.
{"columns": ["Molecule", "Result number"],
 "data": [
  ["CCc1cc(CN(C)Cc2nc(-c3sccc3C)oc2C)on1", -3.81],
  ["CC(=O)N1CCc2nc(-c3ccccc3)nc(NC(C)C)c2CC1", -119],
  ["CC(C)c1cc(C(=O)O)nc2[nH]c(=O)[nH]c(=O)c12", -3.25],
  ["OCCCN1CCc2onc(C(c3ccccc3)c3ccccc3)c2C1", -5.51],
  ["CC(C)c1cc(NC(=O)CNC2CCc3nc(C(C)C)nn3C2)on1 (stereo not drawn)", 0.246]
]}

Return reported cytotoxicity at 10 µM; argument: `COc1ccc(Cn2c(=O)n(C)c(=O)c3sccc32)cc1`
24.2

Return reported cytotoxicity at 10 µM; argument: `COc1ccc(C#N)cc1CSCCN1CCOCC1`
6.14

Return reported cytotoxicity at 10 µM; argument: CC(CNC(=O)NCc1ccc2c(c1)OCO2)CC1(C)OCCO1 (stereo not drawn)
-6.78

Return reported cytotoxicity at 10 µM; argument: Cc1cc(C)n(CC2CCCN2C(=O)c2c[nH]c3ncccc23)n1 (stereo not drawn)
-0.808

Return reported cytotoxicity at 10 µM; argument: `CCCOc1ncccc1CNc1nnc(C)c(C)c1C#N`
-14.3

Return reported cytotoxicity at 10 µM; argument: CCn1ccnc1CN1CCN(C(C)C)CC1C (stereo not drawn)
-6.58

Return reported cytotoxicity at 10 µM; argument: `Cc1ccc(CN2CCc3c(COC(C)C)nn(C)c3C2)s1`
0.661

Return reported cytotoxicity at 10 µM; argument: `CCOCCn1c(=O)n(CCC(C)C)c2ncc(C(=O)O)cc21`
2.62

###

Assay: Toxicity liver stage against HepG2, at 10uM
Format: cell-based
Design: test concentration 10 uM, cell line HepG2-A16-CD81EGFP
Conditions: human, HepG2-A16-CD81EGFP cells; read-out: INHIBITION
Measured cytotoxicity at 10 µM, listed per entry for reference.
Answer format: numeric, % implied, no suffix.

Here is how some compounds turned out for cytotoxicity at 10 µM.
{"columns": ["Compound", "cytotoxicity at 10 µM, %"],
 "data": [
  ["COCc1ccc(C(=O)N2CC[C@H](O)[C@@H](n3ccnc3)CC2)cc1", -12.1],
  ["O=c1ccc(S(=O)(=O)N2CCCC2)cn1CC1CCCCO1 (stereo not drawn)", -0.983],
  ["c1cnn([C@@H]2CN(Cc3nccs3)[C@@H]3CCCO[C@@H]32)c1", 9.07],
  ["Cc1ccc2nc(C3CCCN3Cc3scnc3C)[nH]c2c1 (stereo not drawn)", 8.2],
  ["CCCc1n[nH]c(C2CN(CCCOc3ccccc3)CCO2)n1 (stereo not drawn)", -0.409]
]}

Return reported cytotoxicity at 10 µM; argument: Cc1cc(C(=O)N2CCN(Cc3ccco3)C(CCO)C2)cc(=O)[nH]1 (stereo not drawn)
-1.5

Return reported cytotoxicity at 10 µM; argument: `NC(=O)NC(=O)CCSCc1coc(-c2ccc(F)cc2)n1`
-7.45

Return reported cytotoxicity at 10 µM; argument: Cc1nn(C)c(N2CCOCC2)c1CNC1CCCCNC1=O (stereo not drawn)
5.84
